FACS signal: recorded values
- test-target: human CLDN6 fused to GFP, expressed on engineered HEK293T cells (human) (UniProt P56747)
- experiment-notes: FACS, 293T clone with human CLDN6, 1.5 ug Ab
Field format: numeric only.

Answered cases to consult:
[
  {
    "binder": "AB9-4 (antibody, V domains shown) VH: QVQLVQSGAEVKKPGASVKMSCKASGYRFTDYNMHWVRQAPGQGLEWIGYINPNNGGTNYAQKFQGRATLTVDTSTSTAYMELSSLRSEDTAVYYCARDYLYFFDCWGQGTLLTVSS VL: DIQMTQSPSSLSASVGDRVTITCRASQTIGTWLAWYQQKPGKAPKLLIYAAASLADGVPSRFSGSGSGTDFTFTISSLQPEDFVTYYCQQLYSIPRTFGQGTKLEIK",
    "value-type": "FACS signal",
    "reported-value": 34300
  },
  {
    "binder": "AB4-12 (antibody, V domains shown) VH: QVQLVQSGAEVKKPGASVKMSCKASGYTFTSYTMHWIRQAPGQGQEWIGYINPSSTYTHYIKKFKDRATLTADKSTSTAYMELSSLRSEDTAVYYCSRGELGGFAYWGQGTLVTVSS VL: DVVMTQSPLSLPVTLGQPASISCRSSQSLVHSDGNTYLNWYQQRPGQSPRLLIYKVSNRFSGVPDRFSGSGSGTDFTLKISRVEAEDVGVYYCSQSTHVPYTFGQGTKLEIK",
    "value-type": "FACS signal",
    "reported-value": 86200
  }
]

Enquiry: Read the entry AB4-4 (antibody, V domains shown) VH: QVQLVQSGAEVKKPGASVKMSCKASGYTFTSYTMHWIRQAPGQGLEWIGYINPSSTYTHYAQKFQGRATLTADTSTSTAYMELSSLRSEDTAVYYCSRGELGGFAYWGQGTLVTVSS VL: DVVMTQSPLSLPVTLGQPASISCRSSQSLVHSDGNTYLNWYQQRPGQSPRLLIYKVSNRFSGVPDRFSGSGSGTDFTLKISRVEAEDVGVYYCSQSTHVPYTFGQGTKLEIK and write its reported FACS signal.
Return: 49000
